Parameter pIC50: see the listing below.
assay: Inhibitory concentration against human immunodeficiency virus type 1 (HIV-1 strain IIIB RT) reverse transcriptase was determined by triplicate assay at low (~0.1 pfu/cell) multiplicity of […] (moi)
Scale note: pIC50 = -log10(concentration in M).

Below, each entry is followed by its recorded pIC50 result.
Nc1ncnc2c1ncn2/C=C1\CC1CO (stereo unspecified) :: 4.85
Nc1nc2c(ncn2/C=C2\CC2CO)c(=O)[nH]1 (stereo unspecified) :: 5.72
Cc1cn([C@H]2C[C@H](N=[N+]=[N-])[C@@H](CO)O2)c(=O)[nH]c1=O :: 8.52
Nc1ncnc2c1ncn2/C=C1/CC1CO (stereo unspecified) :: 6.10

Supply pIC50 value. Item: Nc1nc2c(ncn2/C=C2/CC2CO)c(=O)[nH]1 (stereo unspecified)
5.96

---

Each entry below lists one item and its recorded pIC50 value.
assay: Inhibitory concentration against human immunodeficiency virus type 1 (HIV-1 strain IIIB RT) reverse transcriptase was determined by triplicate assay at high (~1 pfu/cell) multiplicity of […] (moi)
Please report pIC50 as the negative decimal logarithm of the molar concentration, giving only the number.

Nc1ncnc2c1ncn2/C=C1/CC1CO (stereo not given) :: 4.70

Next compound, please.
Look up pIC50 of `Cc1cn([C@H]2C[C@H](N=[N+]=[N-])[C@@H](CO)O2)c(=O)[nH]c1=O` and report it.
7.77

---

test: Inhibitory concentration against human immunodeficiency virus type 1 (HIV-1 strain IIIB RT) reverse transcriptase was determined by triplicate assay at high (~1 pfu/cell) multiplicity of […] (moi)
pIC50: −log10 of the molar value.
Reported values of pIC50 for individual entries

Solved entries:
Nc1ncnc2c1ncn2/C=C1\CC1CO (stereo not drawn) :: < 4.00
Nc1nc2c(ncn2/C=C2\CC2CO)c(=O)[nH]1 (stereo not drawn) :: < 4.52

// moving on: another record for pIC50
Supply measured pIC50 of Nc1nc2c(ncn2/C=C2/CC2CO)c(=O)[nH]1 (stereo not drawn) in your reply.
< 4.52
